- System: K562 cells (CRISPR base-edited Bcr-Abl T315I)
- assayComment: CellTiter-Glo cell viability, K562 Bcr-Abl T315I
- conditionSummary: Homo sapiens, K562, 72 h, read-out: EC50 (nM) CTG K562 T315I
Kindly state EC50 for each of the entries shown.
Could you give me the number in nM? Just the number is fine.

Prompt line: Which EC50 reading was recorded for the compound `Cc1ccc(C(=O)Nc2ccc(CN3CCN(C)CC3)c(C(F)(F)F)c2)cc1C#Cc1cnc2cc(OCCOCCOCCOCCOCCOCCOCCNC(=O)CCOCCOCCOCCOCCOCCOCCNC(=O)C3CCN(c4ncc(C(=O)Nc5ccc(OC(F)(F)Cl)cc5)cc4-c4ccn[nH]4)CC3)ccn12` ?
Response line: 1.06

Prompt line: Which EC50 reading was recorded for the compound `Cc1ccc(C(=O)Nc2ccc(CN3CCN(C(=O)CCOCCOCCOCCOCCOCCOCCOCCOCCOCCOCCOCCOCCOCCOCCOCCOCCOCCOCCOCCOCCNC(=O)C4CCN(c5ncc(C(=O)Nc6ccc(OC(F)(F)Cl)cc6)cc5-c5ccn[nH]5)CC4)CC3)c(C(F)(F)F)c2)cc1C#Cc1cnc2cccnn12` ?
Response line: 26.2

Prompt line: Which EC50 reading was recorded for the compound `Cc1ccc(C(=O)Nc2ccc(CN3CCN(C(=O)CCOCCOCCOCCOCCOCCOCCOCCOCCOCCOCCOCCOCCOCCOCCOCCOCCOCCOCCOCCOCCOCCOCCOCCOCCOCCOCCOCCOCCNC(=O)C4CCN(c5ncc(C(=O)Nc6ccc(OC(F)(F)Cl)cc6)cc5-c5ccn[nH]5)CC4)CC3)c(C(F)(F)F)c2)cc1C#Cc1cnc2cccnn12` ?
Response line: 49.1

Prompt line: Which EC50 reading was recorded for the compound `Cc1ccc(C(=O)Nc2ccc(CN3CCN(C)CC3)c(C(F)(F)F)c2)cc1C#Cc1cnc2cc(OCCOCCOCCOCCOCCOCCOCCNC(=O)CCOCCOCCOCCOCCNC(=O)C3CCN(c4ncc(C(=O)Nc5ccc(OC(F)(F)Cl)cc5)cc4-c4ccn[nH]4)CC3)ccn12` ?
Response line: 1.3

Prompt line: Which EC50 reading was recorded for the compound `Cc1ccc(C(=O)Nc2ccc(CN3CCN(C)CC3)c(C(F)(F)F)c2)cc1C#Cc1cnc2cc(OCCOCCOCCOCCOCCOCCOCCNC(=O)CCOCCOCCOCCOCCOCCOCCOCCOCCNC(=O)C3CCN(c4ncc(C(=O)Nc5ccc(OC(F)(F)Cl)cc5)cc4-c4ccn[nH]4)CC3)ccn12` ?
Response line: 0.94

====

Kindly state EC50 for each of the entries shown.
- Test system: K562 cells (CRISPR base-edited Bcr-Abl T315I)
- assayComment: CellTiter-Glo cell viability, K562 Bcr-Abl T315I
- conditionSummary: Homo sapiens, K562, 72 h, read-out: EC50 (nM) CTG K562 T315I
Could you give me the number in nM? Just the number is fine.

Prompt line: Which EC50 reading was recorded for the compound `Cc1ccc(C(=O)Nc2ccc(CN3CCN(C(=O)CCOCCOCCOCCOCCOCCOCCOCCOCCOCCOCCOCCOCCNC(=O)C4CCN(c5ncc(C(=O)Nc6ccc(OC(F)(F)Cl)cc6)cc5-c5ccn[nH]5)CC4)CC3)c(C(F)(F)F)c2)cc1C#Cc1cnc2cccnn12` ?
Response line: 43.7

Prompt line: Which EC50 reading was recorded for the compound `Cc1ccc(C(=O)Nc2ccc(CN3CCN(C)CC3)c(C(F)(F)F)c2)cc1C#Cc1cnc2cc(OCCOCCOCCOCCOCCOCCOCCNC(=O)CCOCCOCCOCCOCCOCCOCCOCCOCCOCCOCCNC(=O)C3CCN(c4ncc(C(=O)Nc5ccc(OC(F)(F)Cl)cc5)cc4-c4ccn[nH]4)CC3)ccn12` ?
Response line: 0.94

Prompt line: Which EC50 reading was recorded for the compound `Cc1ccc(C(=O)Nc2ccc(CN3CCN(C(=O)CCOCCOCCOCCOCCOCCOCCOCCOCCOCCOCCOCCOCCOCCOCCOCCOCCOCCOCCOCCOCCOCCOCCOCCOCCNC(=O)C4CCN(c5ncc(C(=O)Nc6ccc(OC(F)(F)Cl)cc6)cc5-c5ccn[nH]5)CC4)CC3)c(C(F)(F)F)c2)cc1C#Cc1cnc2cccnn12` ?
Response line: 26.3

Prompt line: Which EC50 reading was recorded for the compound `Cc1ccc(C(=O)Nc2ccc(CN3CCN(C(=O)CCOCCOCCOCCOCCOCCOCCOCCOCCOCCOCCOCCOCCOCCOCCOCCOCCNC(=O)C4CCN(c5ncc(C(=O)Nc6ccc(OC(F)(F)Cl)cc6)cc5-c5ccn[nH]5)CC4)CC3)c(C(F)(F)F)c2)cc1C#Cc1cnc2cccnn12` ?
Response line: 28.7
